Sourced from the C3SDB collision cross section collection

conditions: [M+H]+; instrument: DT; stepped-field
Measurement name: collision cross section (N2) (Å²)
Express the result in Å² but write the number alone.

Below: 2 molecules and their reported collision cross section (N2).
INSERT INTO results (structure_notation, observed_measurement) VALUES
  ('O=C(O)CNC(=O)c1ccccc1', 146.82),
  ('C[Se]CC[C@H](N)C(=O)O', 137.67);

Incoming: Look at this molecule and give its reported collision cross section (N2). `Cc1ncc(CO)c(C=O)c1O`
Outgoing: 135.42

Incoming: And for `c1ncc2[nH]cnc2n1` ?
Outgoing: 125.4

Incoming: Now give it for `CC(C)[C@]12CC(=O)[C@H](C)[C@H]1C2` too.
Outgoing: 141.82

Incoming: // query: `CCCC[C@H](N)C(=O)O`
Outgoing: 142.63

---

settings: [M-H]-; instrument: DT; stepped-field
Measurement name: collision cross section (N2) (Å²)
# unit: Å² | format: bare number

As a guide, the following entries are already answered.
INSERT INTO assay_data (compound, observed_measurement) VALUES
  ('CCCCCCCCCCCCCCCC(=O)OC[C@@H](O)COP(=O)(O)OC[C@@H](O)CO [LPG(16:0)]', 214.3),
  ('CCCCCCCCCCCCCCCC(=O)OC[C@@H](O)COP(=O)(O)O[C@H]1C(O)C(O)C(O)[C@@H](O)C1O (some centres undefined) [LPI(16:0)]', 228.7),
  ('CCCCCCCCCCCCCCCCCC(=O)OC[C@H](COP(=O)(O)OC[C@@H](O)CO)OC(=O)CCCCCCCCCCC [PG(30:0)]', 265.6),
  ('CCCCCCCC/C=C\CCCCCCCCCC(=O)O[C@H](COC(=O)CCCCCCCCCCC)COP(=O)(O)O [PA(16:0/16:1)]', 251.8),
  ('CCCCCCCCCC/C=C\CCCCCCCCCC(=O)O[C@H](COC(=O)CCCCCCCCCCCCC)COP(=O)(O)O [PA(18:0/18:1)]', 268);

Incoming: Given the compound CCCCCCCCCC/C=C\CCCCCCCCCC(=O)O[C@H](COC(=O)CCCCCCCCCCCCCCC)COP(=O)(O)OC[C@H](N)C(=O)O [PS(38:1)] , what is its reported collision cross section (N2)?
Outgoing: 296.1

Incoming: Now try CC/C=C\C/C=C\C/C=C\C/C=C\C/C=C\CCCC(=O)O[C@H](COCCCCCCCCCCCCCCCC)COP(=O)(O)OCCN [PE(o36:5)] .
Outgoing: 270.4

Incoming: Proceed to CCCCCC/C=C\CCCCCCCC(=O)OC[C@@H](O)COP(=O)(O)OCCN [LPE(16:1)]
Outgoing: 201.1

Incoming: Moving on to the next compound: CCCCC/C=C\C/C=C\C/C=C\CCCCCCC(=O)O[C@H](COC(=O)CCCCCCC/C=C\CCCCCC)COP(=O)(O)O[C@H]1C(O)C(O)C(O)[C@@H](O)C1O (some centres undefined) [PI(36:4)]
Outgoing: 297.2

Incoming: And then CCCCCC/C=C\CCCCCCCCCC(=O)O[C@H](CO)COP(=O)(O)OCCN [LPE(18:1)] , what is it?
Outgoing: 210.1

Incoming: // same read-out, input: CCCC/C=C\CCCCCCCC(=O)OC[C@H](COP(=O)(O)OC[C@@H](O)CO)OC(=O)CCCCCCCCCCCCCCCCCCCC [PG(35:1)]
Outgoing: 280.1

Incoming: And what about the compound CCCCC/C=C\C/C=C\CCCCCCCCCCCC(=O)O[C@H](COC(=O)CCCCCCC/C=C\CCCCCC)COP(=O)(O)OC[C@H](N)C(=O)O [PS(38:3)] ?
Outgoing: 292.4

Incoming: Queued: CCCC/C=C\CCCCCCCC(=O)OC[C@H](COP(=O)(O)OC[C@@H](O)CO)OC(=O)CCCCCCC/C=C\CCCCCCCC [PG(16:1/16:1)]
Outgoing: 267.1

Incoming: Param item: CCCCCCCCCCCCCCCC(=O)OC[C@H](COP(=O)(O)O[C@H]1C(O)C(O)C(O)[C@@H](O)C1O)OC(=O)CCCCCCCCCCC (some centres undefined) [PI(12:0/16:0)]
Outgoing: 273.5

Incoming: Then what about the compound CCCCCC/C=C\CCCCCCCC(=O)OC[C@@H](O)COP(=O)(O)OC[C@@H](O)CO [LPG(16:1)] ?
Outgoing: 212

Incoming: Try the compound CCCCCCC/C=C\CCCCCCCC(=O)O[C@H](COC(=O)CCCCCCCCCCCC)COP(=O)(O)O[C@H]1C(O)C(O)C(O)[C@@H](O)C1O (some centres undefined) [PI(14:0/16:1)]
Outgoing: 278.4

Incoming: Please do the same for CCCCC/C=C\C/C=C\CCCCCCCCCCCC(=O)O[C@H](COC(=O)CCCCCCCCCCC)COP(=O)(O)O[C@H]1C(O)C(O)C(O)[C@@H](O)C1O (some centres undefined) [PI(16:1/18:1)] as well.
Outgoing: 289.2
